target: human vitronectin receptor (VnR) αVβ3 (Homo sapiens, UniProt P05106+P06756); construct: Human vitronectin receptor is isolated from the human placenta using the method of Pytela et al; from tissue; host or cells: human placenta (alternatively 293 cells cotransfected with αV and β3 DNA); assay: Inhibition of the binding of Kistrin to human vitronectin receptor (VnR) αVβ3: ELISA test (Kistrin/VnR); conditions: plates coated with Kistrin, test method 2
Sequence (P06756 31-889 limits assumed): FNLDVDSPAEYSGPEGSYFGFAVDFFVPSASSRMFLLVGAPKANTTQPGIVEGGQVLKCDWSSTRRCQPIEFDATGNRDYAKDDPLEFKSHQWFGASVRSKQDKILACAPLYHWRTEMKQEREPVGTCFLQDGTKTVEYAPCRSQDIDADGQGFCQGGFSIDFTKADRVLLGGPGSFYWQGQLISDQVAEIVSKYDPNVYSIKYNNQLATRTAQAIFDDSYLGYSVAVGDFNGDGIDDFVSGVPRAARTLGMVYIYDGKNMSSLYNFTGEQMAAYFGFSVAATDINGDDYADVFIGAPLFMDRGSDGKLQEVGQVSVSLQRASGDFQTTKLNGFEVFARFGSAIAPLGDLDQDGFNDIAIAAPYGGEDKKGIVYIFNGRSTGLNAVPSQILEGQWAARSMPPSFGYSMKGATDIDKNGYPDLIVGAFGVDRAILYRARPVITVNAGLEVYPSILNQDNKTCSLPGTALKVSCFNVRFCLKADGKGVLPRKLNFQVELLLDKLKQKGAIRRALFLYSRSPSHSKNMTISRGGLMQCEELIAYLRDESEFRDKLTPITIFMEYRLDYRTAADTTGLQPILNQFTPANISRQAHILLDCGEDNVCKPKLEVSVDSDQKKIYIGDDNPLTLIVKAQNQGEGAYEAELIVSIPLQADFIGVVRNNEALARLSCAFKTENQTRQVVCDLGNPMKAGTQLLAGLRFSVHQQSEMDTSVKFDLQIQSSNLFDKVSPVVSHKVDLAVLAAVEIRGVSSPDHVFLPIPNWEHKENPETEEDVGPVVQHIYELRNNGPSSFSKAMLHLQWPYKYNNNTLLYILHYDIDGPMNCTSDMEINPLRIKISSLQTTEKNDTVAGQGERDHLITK
Sequence (P06756 891-1048 partner limits assumed): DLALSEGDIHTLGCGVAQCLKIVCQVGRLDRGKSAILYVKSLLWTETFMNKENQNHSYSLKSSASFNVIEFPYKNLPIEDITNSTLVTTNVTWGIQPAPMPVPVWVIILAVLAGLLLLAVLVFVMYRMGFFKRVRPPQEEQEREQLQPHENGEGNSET
Sequence (P05106 27-788): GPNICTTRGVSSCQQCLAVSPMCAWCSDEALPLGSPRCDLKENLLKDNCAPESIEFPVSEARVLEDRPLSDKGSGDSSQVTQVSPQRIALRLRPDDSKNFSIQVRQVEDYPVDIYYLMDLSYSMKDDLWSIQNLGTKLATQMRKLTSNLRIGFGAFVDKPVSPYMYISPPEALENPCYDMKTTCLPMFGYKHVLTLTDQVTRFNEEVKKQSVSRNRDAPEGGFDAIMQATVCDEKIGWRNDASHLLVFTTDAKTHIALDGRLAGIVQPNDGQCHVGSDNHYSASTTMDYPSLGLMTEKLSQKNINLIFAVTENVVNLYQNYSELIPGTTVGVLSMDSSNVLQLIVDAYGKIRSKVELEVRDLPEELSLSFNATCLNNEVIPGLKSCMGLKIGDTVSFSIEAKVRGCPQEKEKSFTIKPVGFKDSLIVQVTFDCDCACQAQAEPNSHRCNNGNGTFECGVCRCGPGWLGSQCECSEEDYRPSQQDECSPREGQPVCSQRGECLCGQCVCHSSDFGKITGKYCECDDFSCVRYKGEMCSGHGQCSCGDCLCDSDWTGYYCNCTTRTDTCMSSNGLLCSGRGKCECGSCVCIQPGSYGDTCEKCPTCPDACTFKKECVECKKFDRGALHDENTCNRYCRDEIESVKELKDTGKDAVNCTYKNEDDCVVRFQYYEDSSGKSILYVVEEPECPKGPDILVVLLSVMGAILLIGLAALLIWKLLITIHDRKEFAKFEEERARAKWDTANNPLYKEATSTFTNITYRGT
pIC50: −log10 of the molar value.
property label: pIC50

Example entries and their recorded answers appear below.
INSERT INTO results (compound, numeric_readout) VALUES
  ('O=C(CN1C(=O)N[C@@H](CCCNc2nc3ccccc3[nH]2)C1=O)NC[C@H](NC(=O)OCc1ccccc1)C(=O)O', 7.40),
  ('N=C(N)NC(=O)NC[C@@H]1NC(=O)N(CC(=O)NC[C@H](NC(=O)OCc2ccccc2)C(=O)O)C1=O', 6.44),
  ('O=C(CN1C(=O)N[C@@H](CCCNC2=NCCN2)C1=O)NC[C@H](NC(=O)OCc1ccccc1)C(=O)O', 7.70),
  ('N=C(N)NC(=O)CC[C@@H]1NC(=O)N(CC(=O)NC[C@H](NC(=O)OCc2ccccc2)C(=O)O)C1=O', 7.70),
  ('O=C(CN1C(=O)N[C@@H](CC(=O)NNC2=NCCN2)C1=O)NC[C@H](NC(=O)OCc1ccccc1)C(=O)O', 6.24);

I = O=C(CN1C(=O)N[C@@H](CC(=O)NNC2=NCCCN2)C1=O)NC[C@H](NC(=O)OCc1ccccc1)C(=O)O
II = O=C(CN1C(=O)N[C@@H](CCCNc2ncccn2)C1=O)NC[C@H](NC(=O)OCc1ccccc1)C(=O)O
So which one has the bigger pIC50 here, I or II ? Pick one and reply with its label.
I

----------
target: human vitronectin receptor (VnR) αVβ3 (Homo sapiens, UniProt P05106+P06756); construct: Human vitronectin receptor is isolated from the human placenta using the method of Pytela et al; from tissue; host or cells: human placenta (alternatively 293 cells cotransfected with αV and β3 DNA); assay: Inhibition of the binding of human vitronectin (Vn) to human vitronectin receptor (VnR) αVβ3: ELISA test (Vn/VnR); conditions: plates coated with human vitronectin, test method 1
property label: IC50 (nM)
Use nM as the unit, but write only the number.

Param item = O=C(CN1C(=O)N[C@@H](CCCNC2=NCCN2)C1=O)NC[C@H](NC(=O)OCc1ccccc1)C(=O)O ; retrieve measured IC50.
8
